The measurements presented in this section are drawn from ChEMBL document CHEMBL1828586.

- Tested on: OVCAR-8
- ASSAY PROTOCOL: Resistance factor, ratio of IC50 for human NCI-ADR-RES cells to IC50 for drug-sensitive human OVCAR8 cells
- Assay type: functional
Ratio IC50 listing for selected molecules.
TEST READOUT: Ratio IC50

INSERT INTO assay_data (substance_smiles, measured_on, test_readout, numeric_result) VALUES
  ('COc1cc(/C(=N\C#N)c2csc(-c3ccccc3)n2)cc(OC)c1OC', 'OVCAR-8', 'Ratio IC50', 0.4),
  ('COc1cc(C(=O)c2csc(-c3ccc4[nH]ccc4c3)n2)cc(OC)c1OC', 'OVCAR-8', 'Ratio IC50', 0.4),
  ('COc1cc(C(=O)c2csc(Nc3ccc(C)cc3)n2)cc(OC)c1OC', 'OVCAR-8', 'Ratio IC50', 0.8),
  ('COc1cc(C(=O)c2cccc(-c3ccccc3)n2)cc(OC)c1OC', 'OVCAR-8', 'Ratio IC50', 0.4),
  ('COc1cc(C(=O)c2csc(Nc3ccccc3)n2)cc(OC)c1OC', 'OVCAR-8', 'Ratio IC50', 0.6);

---

- ASSAY PROTOCOL: Cmax in Sprague-Dawley rat at 4 mg/kg, po by LC-MS/MS analysis
- Type: ADME, organism-based
- Parameters: dose 4 mg/kg, route oral
- TEST SETTINGS: in vivo
TEST READOUT: Cmax (ng/mL)

INSERT INTO measurements (substance_smiles, test_readout, numeric_result) VALUES
  ('COc1cc(C(=O)c2csc(-c3ccc(CN)cc3)n2)cc(OC)c1OC.Cl', 'Cmax', 3.2);

---

- ASSAY PROTOCOL: AUC in Sprague-Dawley rat at […], iv by LC-MS/MS analysis
- Assay type: ADME, organism-based
- Design: dose 2.5 mg/kg, route intravenous
- TEST SETTINGS: plasma
AUC: recorded values
TEST READOUT: AUC (ng·h/mL)

INSERT INTO measurements (substance_smiles, endpoint_unit, numeric_result) VALUES
  ('COc1cc(C(=O)c2csc(-c3ccccc3)n2)cc(OC)c1OC', 'ng·h/mL', 4650),
  ('COc1cc(C(=O)c2csc(-c3ccc(CN)cc3)n2)cc(OC)c1OC.Cl', 'ng·h/mL', 2320);

---

- ASSAY PROTOCOL: Cmax in Sprague-Dawley rat at […], iv by LC-MS/MS analysis
- Format: ADME, organism-based
- Design: dose 2.5 mg/kg, route intravenous
- TEST SETTINGS: in vivo
TEST READOUT: Cmax (ng/mL)

INSERT INTO assay_data (substance_smiles, numeric_result) VALUES
  ('COc1cc(C(=O)c2csc(-c3ccc(CN)cc3)n2)cc(OC)c1OC.Cl', 3790);

---

- System: DU-145
- ASSAY PROTOCOL: Anticancer activity against human DU145 cells after 96 hrs by SRB assay
- Format: functional, cell-based
- TEST SETTINGS: DU-145, 96 h
pIC50: −log10 of the molar value.
Answer F if pIC50 is under 7, and T if it is 7 or more.

INSERT INTO results (molecule, qualitative_label) VALUES
  ('COc1cc(/C(=C/C#N)c2csc(-c3ccccc3)n2)cc(OC)c1OC', 'F'),
  ('COc1cc(/C(=N\O)c2csc(-c3ccccc3)n2)cc(OC)c1OC', 'F'),
  ('COc1cc([S+]([O-])c2cccc(-c3ccccc3)c2)cc(OC)c1OC (configuration not stated)', 'F'),
  ('COc1cc(C(=O)c2cnc(-c3ccccc3)s2)cc(OC)c1OC', 'F'),
  ('COc1cc(C(=O)c2ccc(-c3ccccc3)o2)cc(OC)c1OC', 'T'),
  ('COc1cc(C(=O)c2cc(-c3ccccc3)ncn2)cc(OC)c1OC', 'F'),
  ('COc1cc(C(=O)c2csc(Nc3ccc(C)cc3)n2)cc(OC)c1OC', 'T'),
  ('COc1cc(C(=O)c2csc(-c3ccccc3)c2)cc(OC)c1OC', 'T'),
  ('COc1cc(NS(=O)(=O)c2cccc(-c3ccccc3)c2)cc(OC)c1OC', 'F'),
  ('COc1cc(C(=O)N2CCC(c3ccccc3)CC2)cc(OC)c1OC', 'F'),
  ('COc1cc(C(=C(C)C)c2csc(-c3ccccc3)n2)cc(OC)c1OC', 'F'),
  ('COc1cc(Sc2cccc(-c3ccccc3)c2)cc(OC)c1OC', 'F'),
  ('COc1cc(C(=O)c2csc(-c3cc4ccccc4[nH]3)n2)cc(OC)c1OC', 'T'),
  ('COc1cc(NC(=O)c2csc(-c3ccccc3)n2)cc(OC)c1OC', 'F'),
  ('CO/N=C(/c1cc(OC)c(OC)c(OC)c1)c1csc(-c2ccccc2)n1', 'F'),
  ('COc1cc(C(=O)c2cccc(-c3ccccc3)c2)cc(OC)c1OC', 'F'),
  ('COc1cc(/C(=N\C#N)c2csc(-c3ccccc3)n2)cc(OC)c1OC', 'T'),
  ('COc1cc(C(=O)c2csc(-c3ccc(CNC(=O)OC(C)(C)C)cc3)n2)cc(OC)c1OC', 'F'),
  ('COc1cc(-c2csc(-c3ccccc3)n2)cc(OC)c1OC', 'F');
